- assay system: WIZ (Homo sapiens, UniProt O95785+Q96SW2)
- Construct: expressed in transfected cells
- Sequence (O95785 whole entry): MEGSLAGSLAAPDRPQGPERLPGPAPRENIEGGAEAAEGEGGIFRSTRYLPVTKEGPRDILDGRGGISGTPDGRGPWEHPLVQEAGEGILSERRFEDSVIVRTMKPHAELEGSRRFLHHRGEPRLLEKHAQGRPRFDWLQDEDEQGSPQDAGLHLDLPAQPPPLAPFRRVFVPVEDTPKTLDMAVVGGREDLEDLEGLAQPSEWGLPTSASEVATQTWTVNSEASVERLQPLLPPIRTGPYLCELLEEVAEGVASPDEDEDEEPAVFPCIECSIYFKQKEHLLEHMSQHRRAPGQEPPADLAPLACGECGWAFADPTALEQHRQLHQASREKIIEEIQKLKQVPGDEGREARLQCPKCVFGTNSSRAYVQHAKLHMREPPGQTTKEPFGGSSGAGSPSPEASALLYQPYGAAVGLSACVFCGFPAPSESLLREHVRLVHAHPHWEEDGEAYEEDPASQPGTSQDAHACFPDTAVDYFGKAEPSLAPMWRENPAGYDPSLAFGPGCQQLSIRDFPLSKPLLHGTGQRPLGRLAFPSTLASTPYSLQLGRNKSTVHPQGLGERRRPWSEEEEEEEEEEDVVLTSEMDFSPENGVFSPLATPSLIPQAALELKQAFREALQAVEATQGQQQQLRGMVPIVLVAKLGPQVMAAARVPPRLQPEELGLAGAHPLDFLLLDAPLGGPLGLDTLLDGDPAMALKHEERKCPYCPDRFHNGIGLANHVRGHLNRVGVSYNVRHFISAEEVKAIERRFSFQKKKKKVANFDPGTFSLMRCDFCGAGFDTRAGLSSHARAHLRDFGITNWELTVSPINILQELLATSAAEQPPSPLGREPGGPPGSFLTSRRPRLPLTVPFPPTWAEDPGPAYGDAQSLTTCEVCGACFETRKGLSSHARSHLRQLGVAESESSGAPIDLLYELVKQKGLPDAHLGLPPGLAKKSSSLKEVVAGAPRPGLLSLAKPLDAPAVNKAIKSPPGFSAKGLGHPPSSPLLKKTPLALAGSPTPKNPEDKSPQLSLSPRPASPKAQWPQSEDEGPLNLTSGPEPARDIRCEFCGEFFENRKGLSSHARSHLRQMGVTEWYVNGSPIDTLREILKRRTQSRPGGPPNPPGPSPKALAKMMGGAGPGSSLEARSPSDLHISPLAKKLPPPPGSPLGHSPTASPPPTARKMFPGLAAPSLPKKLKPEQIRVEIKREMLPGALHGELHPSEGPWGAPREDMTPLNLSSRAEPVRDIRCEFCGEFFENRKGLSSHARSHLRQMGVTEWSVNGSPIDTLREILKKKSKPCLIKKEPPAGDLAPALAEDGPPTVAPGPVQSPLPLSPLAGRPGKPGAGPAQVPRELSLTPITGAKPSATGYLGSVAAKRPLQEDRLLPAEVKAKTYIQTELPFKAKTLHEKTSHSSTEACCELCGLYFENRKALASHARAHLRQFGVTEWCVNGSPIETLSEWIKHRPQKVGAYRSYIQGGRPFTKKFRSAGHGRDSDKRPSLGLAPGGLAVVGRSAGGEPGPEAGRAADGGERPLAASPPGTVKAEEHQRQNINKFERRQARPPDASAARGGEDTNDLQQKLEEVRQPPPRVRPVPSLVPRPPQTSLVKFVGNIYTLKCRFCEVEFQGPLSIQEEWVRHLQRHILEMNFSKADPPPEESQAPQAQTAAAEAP
- Sequence (Q96SW2 whole entry): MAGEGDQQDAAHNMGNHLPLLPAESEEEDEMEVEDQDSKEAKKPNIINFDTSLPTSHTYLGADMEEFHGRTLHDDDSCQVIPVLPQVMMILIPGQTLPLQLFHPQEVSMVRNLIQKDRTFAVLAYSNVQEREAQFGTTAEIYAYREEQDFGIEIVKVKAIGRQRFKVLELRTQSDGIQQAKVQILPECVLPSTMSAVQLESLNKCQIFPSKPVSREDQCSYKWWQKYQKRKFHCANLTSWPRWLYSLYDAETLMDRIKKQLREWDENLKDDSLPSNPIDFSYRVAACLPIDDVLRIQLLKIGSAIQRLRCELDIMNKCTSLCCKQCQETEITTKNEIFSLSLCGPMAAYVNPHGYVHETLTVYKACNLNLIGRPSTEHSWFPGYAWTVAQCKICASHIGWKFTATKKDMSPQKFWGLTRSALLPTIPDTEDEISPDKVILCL
- Sequence (Q16531 whole entry partner): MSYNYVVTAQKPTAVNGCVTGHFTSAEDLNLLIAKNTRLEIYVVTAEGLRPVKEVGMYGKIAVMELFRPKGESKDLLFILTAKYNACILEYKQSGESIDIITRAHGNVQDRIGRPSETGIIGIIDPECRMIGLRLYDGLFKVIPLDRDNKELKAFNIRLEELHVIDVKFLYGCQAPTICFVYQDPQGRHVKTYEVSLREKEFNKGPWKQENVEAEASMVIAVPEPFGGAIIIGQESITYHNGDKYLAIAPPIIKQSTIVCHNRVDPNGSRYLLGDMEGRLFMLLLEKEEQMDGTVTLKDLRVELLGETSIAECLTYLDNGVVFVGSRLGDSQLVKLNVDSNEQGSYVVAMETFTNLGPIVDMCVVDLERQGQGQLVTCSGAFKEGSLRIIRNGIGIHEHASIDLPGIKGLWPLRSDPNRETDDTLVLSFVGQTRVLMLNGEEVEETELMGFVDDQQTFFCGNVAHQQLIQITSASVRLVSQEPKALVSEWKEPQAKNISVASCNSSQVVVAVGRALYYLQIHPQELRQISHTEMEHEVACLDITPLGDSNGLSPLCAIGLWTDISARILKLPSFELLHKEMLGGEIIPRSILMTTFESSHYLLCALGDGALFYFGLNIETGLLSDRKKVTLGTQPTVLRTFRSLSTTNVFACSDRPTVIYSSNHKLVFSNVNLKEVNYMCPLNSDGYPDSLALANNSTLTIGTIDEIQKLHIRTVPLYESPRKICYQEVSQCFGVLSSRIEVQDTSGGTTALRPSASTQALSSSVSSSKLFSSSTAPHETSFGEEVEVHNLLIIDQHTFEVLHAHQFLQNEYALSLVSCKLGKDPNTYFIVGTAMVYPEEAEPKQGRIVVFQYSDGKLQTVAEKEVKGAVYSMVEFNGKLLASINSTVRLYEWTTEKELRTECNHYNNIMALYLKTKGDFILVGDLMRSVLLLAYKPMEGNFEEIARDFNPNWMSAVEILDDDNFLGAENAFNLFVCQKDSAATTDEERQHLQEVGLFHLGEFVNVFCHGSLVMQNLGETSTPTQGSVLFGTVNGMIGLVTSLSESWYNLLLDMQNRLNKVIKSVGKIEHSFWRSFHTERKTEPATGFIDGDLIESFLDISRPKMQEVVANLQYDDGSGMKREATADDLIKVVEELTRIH
- procedure summary: Quantification of WIZ protein levels in HiBit tag fusion protein assay (WIZ HiBit assay in 293T cells)
- Assay type: cell-based
- reported conditions: HEK-293T, DMSO-normalized, curve-fitted percentage of WIZ-HiBit remaining at 25 uM; read-out: WIZ Amax
Readings of remaining activity at 25 µM for the listed compounds

compound	assay system	remaining activity at 25 µM, %
O=C1CCN(c2noc3ccc(CN4CCN(C5CC5)CC4)cc23)C(=O)N1 [Example 119]	WIZ (Homo sapiens, UniProt O95785+Q96SW2)	14
O=C1CCN(c2noc3ccc(CN4CCN5CCOC[C@@H]5C4)cc23)C(=O)N1 [Example 111]	WIZ (Homo sapiens, UniProt O95785+Q96SW2)	15
C[C@H]1CN(Cc2ccc3onc(N4CCC(=O)NC4=O)c3c2)CCN1CC1COC1 [Example 86]	WIZ (Homo sapiens, UniProt O95785+Q96SW2)	14
O=C1CCN(c2noc3ccc(CN4C[C@H]5C[C@@H]4CN5CC4CCOCC4)cc23)C(=O)N1 [Example 98]	WIZ (Homo sapiens, UniProt O95785+Q96SW2)	19
C[C@@H]1CN(CC2COC2)CCN1Cc1ccc2onc(N3CCC(=O)NC3=O)c2c1 [Example 68]	WIZ (Homo sapiens, UniProt O95785+Q96SW2)	17

###

- assay system: WIZ (Homo sapiens, UniProt O95785+Q96SW2)
- Construct: expressed in transfected cells
- procedure summary: Quantification of WIZ protein levels in HiBit tag fusion protein assay (WIZ HiBit assay in 293T cells)
- Type: cell-based
- reported conditions: HEK-293T, DMSO-normalized, curve-fitted percentage of WIZ-HiBit remaining at 25 uM; read-out: WIZ Amax

molecule	remaining activity at 25 µM [%]
CN1C[C@H]2CC[C@@H](C1)N2Cc1ccc2onc(N3CCC(=O)NC3=O)c2c1 [Example 103]	14
O=C1CCN(c2noc3ccc(CN4CCN(Cc5ccccc5)CC4)cc23)C(=O)N1 [Example 25]	13
O=C1CCN(c2noc3ccc(CC4CCN(CC5CCC5)CC4)cc23)C(=O)N1 [Example 3]	8
CS(=O)(=O)N1[C@@H]2CC[C@H]1CC(Cc1ccc3onc(N4CCC(=O)NC4=O)c3c1)C2 (stereo partly shown) [Example 60]	10
C[C@H]1CN(S(C)(=O)=O)[C@@H](C)CN1Cc1ccc2onc(N3CCC(=O)NC3=O)c2c1 [Example 105]	25
C[C@@H]1CN(C2CC2)CCN1Cc1ccc2onc(N3CCC(=O)NC3=O)c2c1 [Example 120]	17
CC(C)CN1CCN(Cc2ccc3onc(N4CCC(=O)NC4=O)c3c2)[C@@H](C)C1 [Example 32]	9
CS(=O)(=O)N1C[C@H]2CC[C@@H](C1)N2Cc1ccc2onc(N3CCC(=O)NC3=O)c2c1 [Example 104]	15
O=C1CCN(c2noc3ccc(CN4C[C@@H]5C[C@H]4CN5CC4CCOCC4)cc23)C(=O)N1 [Example 95]	18
CC(C)(C)OC(=O)N1CCC(Cc2ccc3onc(N4CCC(=O)NC4=O)c3c2)C1 (stereo not shown) [Example 47]	15

###

Readings of DC50 for the listed molecules
- assay system: WIZ (Homo sapiens, UniProt O95785+Q96SW2)
- Construct: expressed in transfected cells
- procedure summary: Quantification of WIZ protein levels in HiBit tag fusion protein assay (WIZ HiBit assay in 293T cells)
- Assay type: cell-based
- reported conditions: WIZ HiBit assay in 293T cells; 10-point, 5-fold dilution, highest concentration 25 μM, about 18 hours; read-out: WIZ AC50
reported metric: DC50

compound structure	assay system	recorded value
CC(C)(C)OC(=O)N1CCN(Cc2ccc3onc(N4CCC(=O)NC4=O)c3c2)CC1(C)C	WIZ (Homo sapiens, UniProt O95785+Q96SW2)	298 nM
CN1CCN(Cc2ccc3onc(N4CCC(=O)NC4=O)c3c2)CC1	WIZ (Homo sapiens, UniProt O95785+Q96SW2)	10 nM
CS(=O)(=O)N1C[C@H]2CC[C@@H](C1)N2Cc1ccc2onc(N3CCC(=O)NC3=O)c2c1	WIZ (Homo sapiens, UniProt O95785+Q96SW2)	181 nM

###

- assay system: WIZ (Homo sapiens, UniProt O95785+Q96SW2)
- Construct: expressed in transfected cells
- procedure summary: Quantification of WIZ protein levels in HiBit tag fusion protein assay (WIZ HiBit assay in 293T cells)
- Type: cell-based
- reported conditions: HEK-293T, DMSO-normalized, curve-fitted percentage of WIZ-HiBit remaining at 25 uM; read-out: WIZ Amax

compound structure	remaining activity at 25 µM (%)
CC[C@@H]1CN(CC(C)C)CCN1Cc1ccc2onc(N3CCC(=O)NC3=O)c2c1	15
C[C@@H]1CN(C)CCN1Cc1ccc2onc(N3CCC(=O)NC3=O)c2c1	16
O=C1CCN(c2noc3ccc(CN4[C@@H]5CC[C@H]4CNC5)cc23)C(=O)N1	20

###

- assay system: WIZ (Homo sapiens, UniProt O95785+Q96SW2)
- Construct: expressed in transfected cells
- procedure summary: Quantification of WIZ protein levels in HiBit tag fusion protein assay (WIZ HiBit assay in 293T cells)
- Type: cell-based
- reported conditions: WIZ HiBit assay in 293T cells; 10-point, 5-fold dilution, highest concentration 25 μM, about 18 hours; read-out: WIZ AC50
Readings of DC50 for the listed compounds

compound	assay system	DC50 [nM]
CC(C)N1CCN(Cc2ccc3onc(N4CCC(=O)NC4=O)c3c2)[C@H](C)C1 [Example 69]	WIZ (Homo sapiens, UniProt O95785+Q96SW2)	45
CC(C)C(=O)N1CCN(Cc2ccc3onc(N4CCC(=O)NC4=O)c3c2)CC1 [Example 85]	WIZ (Homo sapiens, UniProt O95785+Q96SW2)	218
CC(C)CN1CCN(Cc2ccc3onc(N4CCC(=O)NC4=O)c3c2)CC1=O [Example 113]	WIZ (Homo sapiens, UniProt O95785+Q96SW2)	256
CC(C)S(=O)(=O)N1CCN(Cc2ccc3onc(N4CCC(=O)NC4=O)c3c2)CC1 [Example 84]	WIZ (Homo sapiens, UniProt O95785+Q96SW2)	145
CN1[C@@H]2CC[C@H]1CC(Cc1ccc3onc(N4CCC(=O)NC4=O)c3c1)C2 (stereo partly drawn) [Example 58]	WIZ (Homo sapiens, UniProt O95785+Q96SW2)	20
CC(C)(C)OC(=O)N1CCCC(Cc2ccc3onc(N4CCC(=O)NC4=O)c3c2)C1 (stereo not drawn) [Example 42]	WIZ (Homo sapiens, UniProt O95785+Q96SW2)	1010
CN1C[C@H]2CC[C@@H](C1)N2Cc1ccc2onc(N3CCC(=O)NC3=O)c2c1 [Example 103]	WIZ (Homo sapiens, UniProt O95785+Q96SW2)	68
CS(=O)(=O)N1[C@@H]2CC[C@H]1CC(Cc1ccc3onc(N4CCC(=O)NC4=O)c3c1)C2 (stereo partly drawn) [Example 61]	WIZ (Homo sapiens, UniProt O95785+Q96SW2)	26
CC(C)(C)OC(=O)N1[C@@H]2CC[C@H]1CC(Cc1ccc3onc(N4CCC(=O)NC4=O)c3c1)C2 (single isomer, unassigned) [Example 55]	WIZ (Homo sapiens, UniProt O95785+Q96SW2)	3200

Origin of measurements: patent US20250276964A1
